Test system: green foxtail (Setaria viridis)
Assay: Test A preemergence soil spray, visual injury rating 0-100
Type: in vivo
Conditions: 62 g ai/ha, 10 days, 0 = no effect, 100 = complete control
attribute measured: Foxtail, Green plant response rating (0-100)
A bare number is all that is needed in reply.

Guide cases for Foxtail, Green plant response rating (0-100), answers given:
[[record]]
molecule = "COC(=O)C1C=CC(NC(=O)C2(C)CN(c3cc(F)cc(F)c3)C(=O)O2)C1 (mixture of isomers)"
reported_result = 100

[[record]]
molecule = "C=CC1(C(=O)NC2C=CC(C(=O)O)C2)CN(c2cc(F)cc(F)c2)C(=O)O1 (mixture of isomers)"
reported_result = 50

[[record]]
molecule = "CC1(C(=O)NC2CC=C(C(=O)O)C2)CN(c2cc(Cl)cc(Cl)c2)C(=O)O1 (centres unmarked)"
reported_result = 0

[[record]]
molecule = "CC(C)COC(=O)C1=CCC(NC(=O)C2(C)CN(c3cc(F)cc(F)c3)C(=O)O2)C1 (centres unmarked)"
reported_result = 60


Could you now look at the following molecule, please?
Report Foxtail, Green plant response rating (0-100) on green foxtail (Setaria viridis) for this entry: CCOC(=O)C1C=CC(NC(=O)C2(C)CN(c3cccc(OC(F)(F)F)c3)C(=O)O2)C1 (centres unmarked)
10

----------
Test system: corn (Zea mays)
Test: Test A preemergence soil spray, visual injury rating 0-100
Format: in vivo
Settings: 16 g ai/ha, 0 to 100 scale, 10 days
attribute measured: Corn plant response rating
Respond using a number only.

A selection of reference data follows.
[[record]]
compound = "CC1(C(=O)NC2CC=C(C(=O)NS(=O)(=O)c3ccccc3)C2)CN(c2cc(F)cc(F)c2)C(=O)O1 (racemic)"
reported_result = 0

[[record]]
compound = "CC1(C(=O)NC2C=CC(C(=O)O)C2)CN(c2cc(Cl)c(F)c(Cl)c2)C(=O)O1 (stereo not shown)"
reported_result = 0

[[record]]
compound = "CCOC(=O)C1=CCC(NC(=O)C2(C)CN(c3cc(F)cc(Cl)c3)C(=O)O2)C1 (stereo not shown)"
reported_result = 0

[[record]]
compound = "CC1(C(=O)NC2C=CC(C(=O)NO)C2)CN(c2cc(F)cc(F)c2)C(=O)O1 (stereo not shown)"
reported_result = 0

[[record]]
compound = "C=CC1(C(=O)NC2CC(C(=O)OC)C2)CN(c2cc(F)cc(F)c2)C(=O)O1 (stereo not shown)"
reported_result = 0

[[record]]
compound = "CCOC(=O)C1C=CC(NC(=O)C2(C)CN(c3cccc(OC(F)(F)F)c3)C(=O)O2)C1 (stereo not shown)"
reported_result = 0

[[record]]
compound = "CC1(C(=O)NC2CC=C(C(=O)OCC(F)F)C2)CN(c2cc(Cl)cc(Cl)c2)C(=O)O1 (stereo not shown)"
reported_result = 0

[[record]]
compound = "COC(=O)C1=CCC(NC(=O)C2(C)CN(c3cc(Cl)c(F)c(Cl)c3)C(=O)O2)C1 (stereo not shown)"
reported_result = 0

[[record]]
compound = "COC(=O)C1CC(NC(=O)C2(C)CN(c3cc(F)cc(Cl)c3)C(=O)O2)C1 (stereo not shown)"
reported_result = 10

[[record]]
compound = "CC(C)COC(=O)C1=CCC(NC(=O)C2(C)CN(c3cc(Cl)cc(Cl)c3)C(=O)O2)C1 (stereo not shown)"
reported_result = 0


Note Corn plant response rating for the compound shown: C=CC1(C(=O)NC2C=CC(C(=O)OC)C2)CN(c2cc(F)cc(F)c2)C(=O)O1 (single isomer, unassigned)
40

Give the reported value of Corn plant response rating for this record: CC(C)COC(=O)C1=CCC(NC(=O)C2(C)CN(c3cc(F)cc(F)c3)C(=O)O2)C1 (stereo not shown)
0

Tell us which Corn plant response rating value is on record for CC1(C(=O)NC2CC=C(C(=O)O)C2)CN(c2cc(F)cc(F)c2)C(=O)O1 (stereo not shown)
40

Quick one: give measured Corn plant response rating for COC(=O)C1=CCC(NC(=O)C2(C)CN(c3cc(Cl)cc(Cl)c3)C(=O)O2)C1 (stereo not shown)
0

Tell me Corn plant response rating reported for CC1(C(=O)NC2CC=C(C(=O)OCC(F)(F)F)C2)CN(c2cc(Cl)cc(Cl)c2)C(=O)O1 (stereo not shown)
0

Give Corn plant response rating for CC1(C(=O)NC2CC=C(C(=O)O)C2)CN(c2cc(F)cc(Cl)c2)C(=O)O1 (stereo not shown)
0

Quickly give me recorded Corn plant response rating for COC(=O)C1C=CC(NC(=O)C2(C)CN(c3cccc(OC(F)(F)F)c3)C(=O)O2)C1 (mixture of isomers)
0

Input CC1(C(=O)NC2CC=C(C(=O)OCC(F)(F)F)C2)CN(c2cc(F)cc(Cl)c2)C(=O)O1 (stereo not shown) , output reported Corn plant response rating.
10

Fill in reported Corn plant response rating for this entry: CC1(C(=O)NC2C=CC(C(=O)O)C2)CN(c2cc(F)cc(F)c2)C(=O)O1 (stereo not shown)
60

Give a short answer stating reported Corn plant response rating for COC(=O)C1=CCC(NC(=O)C2(C)CN(c3cc(F)c(F)c(F)c3)C(=O)O2)C1 (mixture of isomers) .
0

Respond only with Corn plant response rating recorded for CC(C)OC(=O)C1=CCC(NC(=O)C2(C)CN(c3cc(Cl)cc(Cl)c3)C(=O)O2)C1 (stereo not shown)
0

Consider the compound COC(=O)COC(=O)C1=CCC(NC(=O)C2(C)CN(c3cc(F)cc(F)c3)C(=O)O2)C1 (stereo not shown) and give its recorded Corn plant response rating.
30

Give the measured Corn plant response rating for COC(=O)COC(=O)C1=CCC(NC(=O)C2(C)CN(c3cc(Cl)cc(Cl)c3)C(=O)O2)C1 (stereo not shown) [Compound 109]
0

Give recorded Corn plant response rating. COC(=O)COC(=O)C1=CCC(NC(=O)C2(C)CN(c3cc(Cl)cc(Cl)c3)C(=O)O2)C1 (stereo not shown) [Compound 110]
0

Identify Corn plant response rating associated with the compound COC(=O)C1C=CC(NC(=O)C2(C)CN(c3cc(F)cc(F)c3)C(=O)O2)C1 (stereo not shown)
30

----------
System: horseweed (Erigeron canadensis)
Assay: Test A postemergence application, visual injury rating 0-100
Format: in vivo
Conditions: Postemergence, 125 g ai/ha, 10 days; 0 is no effect, 100 is complete control
Respond with t for Horseweed plant response rating (0 to 100 scale) values of 70 and above, f for values below.

[[record]]
compound = "COC(=O)C1=CCC(NC(=O)C2(C)CN(c3cc(Cl)cc(Cl)c3)C(=O)O2)C1 (stereo not drawn)"
target_under_test = "horseweed (Erigeron canadensis)"
assigned_label = "t"


Is Horseweed plant response rating (0 to 100 scale) at least 70? Consider CONC(=O)C1CC(NC(=O)C2(C)CN(c3cc(F)cc(F)c3)C(=O)O2)CO1 (stereo not drawn) [Compound 40]
f

Can CC1(C(=O)NC2C=CC(C(=O)OCC#N)C2)CN(c2cc(F)cc(F)c2)C(=O)O1 (stereo not drawn) be said to have Horseweed plant response rating (0 to 100 scale) at or above 70?
t

Could you tell me if the measured Horseweed plant response rating (0 to 100 scale) of CC(C)OC(=O)C1=CCC(NC(=O)C2(C)CN(c3cc(Cl)cc(Cl)c3)C(=O)O2)C1 (stereo not drawn) reaches 70 or more?
f

Does Horseweed plant response rating (0 to 100 scale) meet or surpass 70 for CONC(=O)C1CC(NC(=O)C2(C)CN(c3cc(F)cc(F)c3)C(=O)O2)CO1 (stereo not drawn) [Compound 41] ?
f

Can CC1(C(=O)NC2CC=C(C(=O)O)C2)CN(c2cc(Cl)cc(Cl)c2)C(=O)O1 (stereo not drawn) be said to have Horseweed plant response rating (0 to 100 scale) at or above 70?
t

----------
System: blackgrass (Alopecurus myosuroides)
Experiment: Test A preemergence soil spray, visual injury rating 0-100
Type: in vivo
Conditions: 16 g ai/ha, 0 to 100 scale, 10 days
Form field: Blackgrass plant response rating (one value per entry).
Please state the value as a number alone, without comment.

[[record]]
molecule = "CCOC(=O)C1=CCC(NC(=O)C2(C)CN(c3cc(F)cc(Cl)c3)C(=O)O2)C1 (stereo not shown) [Compound 133]"
target_under_test = "blackgrass (Alopecurus myosuroides)"
reported_result = 0

[[record]]
molecule = "CC1(C(=O)NC2CC(C(=O)O)C2)CN(c2cc(F)cc(Cl)c2)C(=O)O1 (racemic) [Compound 139]"
target_under_test = "blackgrass (Alopecurus myosuroides)"
reported_result = 20

[[record]]
molecule = "COC(=O)C1C=CC(NC(=O)C2(C)CN(c3cccc(OC(F)(F)F)c3)C(=O)O2)C1 (mixture of isomers) [Compound 101]"
target_under_test = "blackgrass (Alopecurus myosuroides)"
reported_result = 0

[[record]]
molecule = "CC(C)COC(=O)C1=CCC(NC(=O)C2(C)CN(c3cc(F)cc(Cl)c3)C(=O)O2)C1 (stereo not shown) [Compound 143]"
target_under_test = "blackgrass (Alopecurus myosuroides)"
reported_result = 0

[[record]]
molecule = "CC1(C(=O)NC2C=CC(C(=O)O)C2)CN(c2cc(F)cc(F)c2)C(=O)O1 (stereo not shown) [Compound 138]"
target_under_test = "blackgrass (Alopecurus myosuroides)"
reported_result = 40

[[record]]
molecule = "C=CC1(C(=O)NC2C=CC(C(=O)OC)C2)CN(c2cc(F)cc(F)c2)C(=O)O1 (single isomer, unassigned) [Compound 168]"
target_under_test = "blackgrass (Alopecurus myosuroides)"
reported_result = 0


Supply measured Blackgrass plant response rating of CCOC(=O)C1=CCC(NC(=O)C2(C)CN(c3cc(F)cc(Cl)c3)C(=O)O2)C1 (stereo not shown) [Compound 134] in your reply.
0

Origin of the recorded values: patent US20260285850A1
